This section presents compounds with their documented growth values.
# System: KM12 colon
# assay.details: NCI-60 one-dose screen, 48 h (100 = growth as untreated, 0 = no growth, -100 = all killed)
# settings: 10 µM unless noted
About 83,000 compounds went through this panel and 20% of them were active in at least one assay; those are over-represented in the sample as a whole. Active and inactive are the calls of the source. How the source made its calls: active means growth percent below 10; inactive means the rest.

[
  {
    "compound": "Oc1cccc(CNC2CCCCC2)c1",
    "growth": "107% (inactive)"
  },
  {
    "compound": "CCC1CCC(C)NC1 (stereo unspecified)",
    "growth": "97.6% (inactive)"
  },
  {
    "compound": "COC1OC(C(COC(C)=O)OC(C)=O)C(OC(C)=O)C(OC(C)=O)C1OC(C)=O (stereo unspecified)",
    "growth": "117% (inactive)"
  },
  {
    "compound": "CCC12OC(COc3ccccc3)CN1CCN2c1ccccc1 (stereo unspecified)",
    "growth": "98.9% [100 µM] (inactive)"
  },
  {
    "compound": "Cc1[nH]n(-c2ccccc2)c(=O)c1C=NC(=S)C(N)=S",
    "growth": "103% (inactive)"
  },
  {
    "compound": "CC(=O)N(C)N=Nc1ccc(C)cc1",
    "growth": "118% (inactive)"
  },
  {
    "compound": "CC(c1ccccc1)N(C)C (stereo unspecified)",
    "growth": "101% (inactive)"
  },
  {
    "compound": "CSCCC(NC(=O)C(Cl)Cl)C(=O)O (stereo unspecified)",
    "growth": "106% (inactive)"
  },
  {
    "compound": "O=C1NCC2CCCC1C2 (stereo unspecified)",
    "growth": "107% (inactive)"
  },
  {
    "compound": "CCCCN(C=S)CCCC",
    "growth": "102% (inactive)"
  },
  {
    "compound": "Clc1ccc(C(SCc2ccccc2)SCc2ccccc2)cc1",
    "growth": "85.1% (inactive)"
  },
  {
    "compound": "Nc1ccc(F)c(Cl)c1F",
    "growth": "108% (inactive)"
  },
  {
    "compound": "COc1ccc(C)cc1NC(=O)SC(C)C",
    "growth": "101% [100 µM] (inactive)"
  },
  {
    "compound": "NNC(=O)c1ccccc1N",
    "growth": "105% (inactive)"
  },
  {
    "compound": "O=C(O)CSCC(=O)Nc1cc(C(F)(F)F)ccc1Cl",
    "growth": "105% (inactive)"
  },
  {
    "compound": "NC(=S)N/N=C/c1ccc(OC(=O)COc2ccc(Cl)cc2)cn1",
    "growth": "64.8% (inactive)"
  }
]

----------
# Test system: OVCAR-8 ovarian
# assay.details: NCI-60 one-dose screen, 48 h (100 = growth as untreated, 0 = no growth, -100 = all killed)
# settings: 10 µM unless noted
Compounds without any hit were thinned out: in the full panel of roughly 83,000, 20% have a hit.
Form field: growth (one value per entry).

[
  {
    "compound": "NCC(O)C(O)C(O)C(O)CO (stereo unspecified)",
    "growth (%)": 100
  },
  {
    "compound": "N#C/C(=C\\c1ccc2c(c1)OCO2)c1ccccc1",
    "growth (%)": 90.1
  },
  {
    "compound": "Nc1nc(Cl)cc(Cl)n1",
    "growth (%)": 112
  },
  {
    "compound": "CCCNS(=O)(=O)c1ccc(Cl)cc1",
    "growth (%)": 104
  },
  {
    "compound": "Cc1ccc(C)c(CN(C)C)c1O",
    "growth (%)": 98.2
  },
  {
    "compound": "O=C(O)C1CCCN1C(=O)OCc1ccccc1 (stereo unspecified)",
    "growth (%)": 94.8
  },
  {
    "compound": "CCCCCCCCCCC(=O)CCCCCCCCCC",
    "growth (%)": 109
  },
  {
    "compound": "C[n+]1cc2cc3c(cc2c2ccccc21)OCO3",
    "growth (%)": 77.9
  },
  {
    "compound": "CC(=O)NNC(=S)N/C=C/c1c(C)ccc([N+](=O)[O-])c1[N+](=O)[O-]",
    "growth (%)": 102
  },
  {
    "compound": "CCOC(=O)N[C@H]1CCc2cc(OC)c(OC)c(OC)c2-c2ccc(SC)c(=O)cc21",
    "growth (%)": 20.8
  },
  {
    "compound": "CN(C)Cc1ccccn1",
    "growth (%)": 101
  }
]

----------
# Tested on: CCRF-CEM leukemia
# assay.details: NCI-60 one-dose screen, 48 h (100 = growth as untreated, 0 = no growth, -100 = all killed)
# settings: 10 µM unless noted
Compounds without any hit were thinned out: in the full panel of roughly 83,000, 20% have a hit. Activity calls are given as the source filed them. How the source made its calls: active means growth percent below 10; inactive means the rest.

[
  {
    "compound": "O=C1NCC2CCCC1C2 (stereo not given)",
    "growth": "104% (inactive)"
  },
  {
    "compound": "O=C(O)Cc1ccccn1",
    "growth": "101% (inactive)"
  },
  {
    "compound": "NNc1ncccn1",
    "growth": "109% (inactive)"
  },
  {
    "compound": "Cc1ccc(OC(=O)c2ccccc2)cc1",
    "growth": "108% (inactive)"
  },
  {
    "compound": "CC(C)(N)CO[C@H]1C[C@H]2CC[C@@]1(C)C2(C)C",
    "growth": "105% (inactive)"
  },
  {
    "compound": "CCCC(=O)c1cccs1",
    "growth": "102% (inactive)"
  },
  {
    "compound": "CN1CCCN(C(c2ccccc2)c2ccc(Cl)cc2)CC1 (stereo not given)",
    "growth": "103% (inactive)"
  },
  {
    "compound": "O=C1C=Cc2ccccc2/C1=C/c1[nH]c(=O)[nH]c1O",
    "growth": "24.3% (inactive)"
  },
  {
    "compound": "COc1ccc(C(=O)C(=O)c2ccccc2)cc1",
    "growth": "-54.2% (active)"
  },
  {
    "compound": "CCc1ccccc1C(=O)N(CC)CC",
    "growth": "97.5% (inactive)"
  },
  {
    "compound": "CCN(CC)CCOC(=O)Nc1c(C(C)C)cccc1C(C)C",
    "growth": "98.4% (inactive)"
  },
  {
    "compound": "C/C(Cc1ccccc1)=N\\O",
    "growth": "-29.9% (active)"
  },
  {
    "compound": "CC(C)N(CCCC#N)C(C)C",
    "growth": "86.9% (inactive)"
  },
  {
    "compound": "CCC12OC(COc3ccccc3)CN1CCN2c1ccccc1 (stereo not given)",
    "growth": "101% [100 µM] (inactive)"
  },
  {
    "compound": "Cc1c(Cl)cccc1N=C=S",
    "growth": "94.6% (inactive)"
  },
  {
    "compound": "COC(=O)c1cccc([N+](=O)[O-])c1",
    "growth": "104% (inactive)"
  },
  {
    "compound": "Ic1cccs1",
    "growth": "96% (inactive)"
  },
  {
    "compound": "CC1(C)OC(=O)CC1=O",
    "growth": "89.3% (inactive)"
  },
  {
    "compound": "COc1cccc(N=CNc2cccc(OC)c2)c1",
    "growth": "94.7% (inactive)"
  },
  {
    "compound": "Cc1ccc2nc(-c3ccc(N=Cc4ccccc4O)cc3)sc2c1",
    "growth": "77.4% (inactive)"
  },
  {
    "compound": "CCCCOC(=O)c1ccccc1O",
    "growth": "-71.6% (active)"
  },
  {
    "compound": "N#C/C(=C\\c1ccc2c(c1)OCO2)c1ccccc1",
    "growth": "75.3% (inactive)"
  },
  {
    "compound": "Oc1cccc(CNC2CCCCC2)c1",
    "growth": "107% (inactive)"
  },
  {
    "compound": "Cc1ccc(C)c(CN(C)C)c1O",
    "growth": "135% (inactive)"
  },
  {
    "compound": "CC1CC(C)S(=O)(=O)C1 (stereo not given)",
    "growth": "101% (inactive)"
  },
  {
    "compound": "Oc1cc2ccccc2c(-c2c(O)c(O)cc3ccccc23)c1O",
    "growth": "-12.5% (active)"
  },
  {
    "compound": "O=C1CSc2ccccc2N1",
    "growth": "96.6% (inactive)"
  },
  {
    "compound": "Cc1cc(Cl)cc(Cc2cc(Cl)cc(C)c2O)c1O",
    "growth": "5.51% (active)"
  },
  {
    "compound": "CC(=O)C[n+]1ccc(C)cc1Sc1ccccc1C",
    "growth": "1.97% (active)"
  },
  {
    "compound": "O=C(Oc1ccccc1Cl)c1ccc(Cl)cc1Cl",
    "growth": "99.9% (inactive)"
  },
  {
    "compound": "ClCc1cccc2c(CCl)cccc12",
    "growth": "29.8% (inactive)"
  },
  {
    "compound": "O=C(Nc1ccc([N+](=O)[O-])cc1)C(=O)Nc1ccc([N+](=O)[O-])cc1",
    "growth": "101% (inactive)"
  },
  {
    "compound": "O=C(OCC1CCCO1)c1ccc([N+](=O)[O-])cc1 (stereo not given)",
    "growth": "94.2% (inactive)"
  },
  {
    "compound": "O=CNCCc1ccccc1",
    "growth": "103% (inactive)"
  },
  {
    "compound": "N#C/C(=C\\c1ccc(C#N)cc1)C(=O)c1ccccc1",
    "growth": "92.9% (inactive)"
  },
  {
    "compound": "CCOC(=O)c1ccc(Nc2sc(C(=O)c3ccc(Br)cc3)c(N)c2C#N)cc1",
    "growth": "12.8% (inactive)"
  },
  {
    "compound": "C1CCc2onc(-c3noc4c3CCCCC4)c2CC1",
    "growth": "99.3% (inactive)"
  },
  {
    "compound": "Nc1ccn(C2OC(CO)C(O)C2F)c(=O)n1 (stereo not given)",
    "growth": "19.1% (inactive)"
  },
  {
    "compound": "CC1=CC(=Nc2ccc(N(C)C)cc2)C=C(C)C1=O",
    "growth": "76.1% (inactive)"
  },
  {
    "compound": "CCOS(=O)(=O)c1ccc([N+](=O)[O-])cc1",
    "growth": "99.2% (inactive)"
  }
]

These data points were gathered from PubChem BioAssay (NCI).
